Assay: qHTS assay to identify small molecule agonists of the progesterone receptor (PR) signaling pathway - cell viability counter screen (AID 1346799); further: nearly all actives have a fitted effect of over 45% in size
Settings: PR-UAS-bla HEK293T viability, CellTiter-Glo luminescence, 16 h; series mostly up to 92.4 µM
From the text: National Center for Advancing Translational Sciences [NCATS] NIH Chemical Genomics Center [NCGC] U.S. Environmental Protection Agency [EPA] National Institutes of Environmental Health Sciences [NIEHS] National Toxicology Program [NTP] U.S. Food and Drug Administration [FDA] Progesterone receptor (PR), a nuclear hormone receptor, plays an important role in development, metabolic homeostasis and reproduction. It is activated by the steroid hormone progesterone. […]
Inconclusive results are not listed. Activity calls are given as the source filed them. The call rests on the fitted dose curve.
Give one outcome, nothing more. List: active, inactive

Some solved entries appear below for comparison.
[
  {
    "COMPOUND": "CCOc1ccc(O)cc1",
    "CAT": "inactive"
  },
  {
    "COMPOUND": "C=CC1CC2C=CC1C2 (stereo not drawn)",
    "CAT": "inactive"
  },
  {
    "COMPOUND": "CC1=CCCC(C)(C)C12CCC(C)O2 (stereo not drawn)",
    "CAT": "inactive"
  },
  {
    "COMPOUND": "C[Si](C)(CCCN)O[Si](C)(C)CCCN",
    "CAT": "inactive"
  },
  {
    "COMPOUND": "COc1cccc(N(C)C(=S)Oc2ccc3c(c2)CCCC3)n1",
    "CAT": "inactive"
  },
  {
    "COMPOUND": "Nc1cccc(S(=O)(=O)c2cccc(N)c2)c1",
    "CAT": "inactive"
  }
]

Request: Name the outcome recorded for CC(C)Nc1ccc(NC(C)C)c2c1C(=O)c1ccccc1C2=O in the assay.
Response: inactive

Request: What outcome does the record of this test show for O=C(O)c1ccc(S(=O)(=O)O)cc1C(=O)O ?
Response: inactive

Request: Dear all, I need the recorded test outcome for CCCCC(CC)COC(=O)CCCCCCCCC(=O)OCC(CC)CCCC (stereo not drawn) , thank you.
Response: inactive

Request: # outcome recorded in this test, key = CCCCc1nc2cccnc2n1Cc1ccc(-c2ccccc2-c2nnn[nH]2)cc1
Response: inactive

###

experiment: qHTS assay to identify small molecule antagonists of the sonic hedgehog signaling (Shh) pathway (AID 1259369); conditions: NIH/3T3 Gli1-Luc reporter, Shh antagonist, luminescence 24 h; series mostly up to 92.4 µM; further: nearly all actives have a fitted effect of over 45% in size
Records with an inconclusive call do not appear. The source made the active and inactive calls. Calls follow the shape of the full dose curve.
Tick one outcome: active, inactive

# example entries with known answers
[
  {
    "SMILES_STRUCTURE": "CCN(CC)c1ccc(C(=C2C=CC(=[N+](CC)CC)C=C2)c2cc(S(=O)(=O)O)ccc2S(=O)(=O)[O-])cc1",
    "CAT": "active"
  },
  {
    "SMILES_STRUCTURE": "NCC(=O)CCC(=O)O",
    "CAT": "inactive"
  },
  {
    "SMILES_STRUCTURE": "O=C(c1ccc(F)cc1)C1CCN(CCn2c(=S)[nH]c3ccccc3c2=O)CC1",
    "CAT": "inactive"
  },
  {
    "SMILES_STRUCTURE": "O=[N+]([O-])c1cccc(S(=O)(=O)O)c1",
    "CAT": "inactive"
  }
]

Next, consider the following molecule.
Request: Please let me know the test result on file for COC(C)OC .
Response: inactive

###

experiment: qHTS assay to identify small molecule agonists of the progesterone receptor (PR) signaling pathway - cell viability counter screen (AID 1346799); settings: PR-UAS-bla HEK293T viability, CellTiter-Glo luminescence, 16 h; series mostly up to 92.4 µM; further: nearly all actives have a fitted effect of over 45% in size
Inconclusive results are not listed. The source made the active and inactive calls. The call rests on the fitted dose curve.
API: response.call in True = active, False = inactive

[
  {
    "COMPOUND": "OCc1cc(C(O)CNCCCCCCOCCCCc2ccccc2)ccc1O (stereo unspecified)",
    "CAT": "False"
  },
  {
    "COMPOUND": "CCOCC(O)COc1ccc(NC(=O)CC[S+](C)C)cc1 (stereo unspecified)",
    "CAT": "False"
  },
  {
    "COMPOUND": "CCOC(=O)COC(=O)c1cc(Oc2ccc(C(F)(F)F)cc2Cl)ccc1[N+](=O)[O-]",
    "CAT": "False"
  },
  {
    "COMPOUND": "O=P(O)(OCc1ccccc1)OCc1ccccc1",
    "CAT": "False"
  },
  {
    "COMPOUND": "Cc1ncc(CO)c(C=O)c1O",
    "CAT": "False"
  }
]

# input for lookup
Request: Name the outcome recorded for CNCCCN1c2ccccc2CCc2ccccc21 in the assay.
Response: True

###

test: qHTS RealTime-Glo MT Cell Viability Assay in HepG2 cells - 0 hour (AID 1224889); conditions: RealTime-Glo luminescence; series mostly up to 76.8 µM; further: on the % scale 0 is the no-effect control and ±100 the full control effect; nearly all actives have a fitted effect of over 50% in size
Results filed as inconclusive are left out. The source made the active and inactive calls. The call rests on the fitted dose curve; in most records, active means well fitted cell-killing curve with a large enough effect in the repeat runs; inconclusive means weak or mixed curves, or effect the other way; inactive means flat fitted curve, though single readings scatter.
Assign a class; possible classes are True = active, False = inactive

Worked set:
[
  {
    "MOLECULE": "CCO[Si](CCCCl)(OCC)OCC",
    "CAT": "False"
  },
  {
    "MOLECULE": "Cn1c(=O)cc(Oc2ccc(F)cc2F)c2cnc(NCC(C)(C)O)nc21",
    "CAT": "False"
  }
]

Now look at this one.
Request: Call for entry CCCCNc1ccc(C(=O)OCCOCCOCCOCCOCCOCCOCCOCCOCCOC)cc1 :
Response: False

###

test: qHTS assay to test for compound auto fluorescence at 535 nm (green) in HEK293 cells (AID 720680); details: green autofluorescence 485/535 nm; series mostly up to 91.3 µM; further: on the % scale 0 is the no-effect control and ±100 the full control effect
Active and inactive are the calls of the source. The call rests on the fitted dose curve; in most records, active means well fitted curve in the direction sought with a large enough effect in the repeat runs; inconclusive means weak or mixed curves; inactive means flat fitted curve, though single readings scatter.
OBSERVABLE: fluorescence, % of fluorescein

Answered examples (4):
[
  {
    "SMILES_STRUCTURE": "C=CC(=O)OCCOc1ccccc1",
    "OBSERVABLE": "fluorescence, % of fluorescein",
    "VALUE_REPORTED": "inactive"
  },
  {
    "SMILES_STRUCTURE": "COc1cccc(N(C)C(=S)Oc2ccc3c(c2)CCCC3)n1",
    "OBSERVABLE": "fluorescence, % of fluorescein",
    "VALUE_REPORTED": "inactive"
  },
  {
    "SMILES_STRUCTURE": "O=P(O)(OCc1ccccc1)OCc1ccccc1",
    "OBSERVABLE": "fluorescence, % of fluorescein",
    "VALUE_REPORTED": "inactive"
  },
  {
    "SMILES_STRUCTURE": "CN1CCN(C(c2ccccc2)c2ccccc2)CC1",
    "OBSERVABLE": "fluorescence, % of fluorescein",
    "VALUE_REPORTED": "0.0022% [at 18.6 µM] (inactive)"
  }
]

Could you now consider this next molecule?
Request: Which value of fluorescence, % of fluorescein has been reported for CN(C)CCCN1c2ccccc2Sc2ccccc21 in the records?
Response: -0.0365% [at 18.6 µM] (inactive)

###

target: Nuclear receptor subfamily 1 group I member 3 (Homo sapiens); test: qHTS assay to identify small molecule antagonists of the constitutive androstane receptor (CAR) signaling pathway (AID 1224838); settings: HepG2-CYP2B6-hCAR luciferase, CITCO-stimulated, 24 h; series mostly up to 92.4 µM;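 further: HepG2 cells stably expressing hCAR with CYP2B6 luciferase reporter stimulated by CITCO; nearly all actives have a fitted effect of over 40% in size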
Inconclusive results are not listed. Calls of active or inactive are those of the source. Calls come from the whole dose curve; as a rule, active = well fitted inhibition curve with a large enough effect in the repeat runs; inconclusive = weak or mixed curves, or effect the other way; inactive = no such curve, though single readings can be large or run the other way.
Entry note: the call must match one of active, inactive

Known results for compounds:
[
  {
    "SMILES_STRUCTURE": "COc1ccc(C)cc1[N+](=O)[O-]",
    "TARGET": "Nuclear receptor subfamily 1 group I member 3 (Homo sapiens)",
    "CAT": "inactive"
  },
  {
    "SMILES_STRUCTURE": "CCOC(=O)C(F)(F)F",
    "TARGET": "Nuclear receptor subfamily 1 group I member 3 (Homo sapiens)",
    "CAT": "inactive"
  },
  {
    "SMILES_STRUCTURE": "CN(C)c1ccc(CCO)cc1",
    "TARGET": "Nuclear receptor subfamily 1 group I member 3 (Homo sapiens)",
    "CAT": "active"
  },
  {
    "SMILES_STRUCTURE": "COc1ccc(S(=O)(=O)N2C(=O)[C@@](c3ccccc3OC)(N3C[C@H](O)C[C@H]3C(=O)N(C)C)c3cc(Cl)ccc32)c(OC)c1",
    "TARGET": "Nuclear receptor subfamily 1 group I member 3 (Homo sapiens)",
    "CAT": "inactive"
  },
  {
    "SMILES_STRUCTURE": "O=C(OCCc1ccccc1)c1ccccc1",
    "TARGET": "Nuclear receptor subfamily 1 group I member 3 (Homo sapiens)",
    "CAT": "inactive"
  }
]

Request: // outcome(item) with item = CC(=O)c1ccc2c(c1)N(CCCN(C)C)c1ccccc1S2
Response: inactive

Request: # lookup: test call for O=C1CCC(=O)O1
Response: inactive

Values were extracted from PubChem BioAssay (Tox21).
